This listing pairs compounds with measured pIC50.
- Test system: M-NFS-60 cells
- ASSAY SUMMARY: Cell proliferation in M-NFS-60 leukemia cell line (WST-1)
- Type: cell-based
- ASSAY SETUP: Table 9; cell proliferation, 72 h, WST-1; read-out: M-NFS-60 IC 50
Schema: pIC50 number; meaning minus log10 of the concentration expressed in molar units.

Please review the entries below; each comes with its answer.
Cc1c(Oc2ncnc3cc(Cl)ccc23)cccc1C(=O)NCc1ccncc1 [CC 397, reference compound] = 5.90
COc1ccc2c(Oc3cccc(C(=O)NCc4ccncc4)c3C)ncnc2c1 [CC 395, reference compound] = 6.20
Cc1c(Oc2ccnc3cc(Cl)ccc23)cccc1C(=O)NCc1ccncc1 = 7.24
COc1ccc2c(Oc3cccc(C(=O)NCc4ccncc4F)c3C)ccnc2c1 = 7.72
COc1ccc2c(Oc3cccc(C(=O)NCc4ccncc4)c3C)ccnc2c1 = 7.47

Let us move to another entry and its pIC50.
Q: Report value: pIC50, system: M-NFS-60 cells, compound: COc1ccc2c(Oc3cccc(C(=O)NCc4ccncc4F)c3C)ncnc2c1 [CC 396, reference compound]
Ans: 6.38

====

This listing pairs compounds with measured inhibition at 0.05 µM.
- TESTED TARGET: FLT3 (Homo sapiens)
- Sequence (P36888 27-993): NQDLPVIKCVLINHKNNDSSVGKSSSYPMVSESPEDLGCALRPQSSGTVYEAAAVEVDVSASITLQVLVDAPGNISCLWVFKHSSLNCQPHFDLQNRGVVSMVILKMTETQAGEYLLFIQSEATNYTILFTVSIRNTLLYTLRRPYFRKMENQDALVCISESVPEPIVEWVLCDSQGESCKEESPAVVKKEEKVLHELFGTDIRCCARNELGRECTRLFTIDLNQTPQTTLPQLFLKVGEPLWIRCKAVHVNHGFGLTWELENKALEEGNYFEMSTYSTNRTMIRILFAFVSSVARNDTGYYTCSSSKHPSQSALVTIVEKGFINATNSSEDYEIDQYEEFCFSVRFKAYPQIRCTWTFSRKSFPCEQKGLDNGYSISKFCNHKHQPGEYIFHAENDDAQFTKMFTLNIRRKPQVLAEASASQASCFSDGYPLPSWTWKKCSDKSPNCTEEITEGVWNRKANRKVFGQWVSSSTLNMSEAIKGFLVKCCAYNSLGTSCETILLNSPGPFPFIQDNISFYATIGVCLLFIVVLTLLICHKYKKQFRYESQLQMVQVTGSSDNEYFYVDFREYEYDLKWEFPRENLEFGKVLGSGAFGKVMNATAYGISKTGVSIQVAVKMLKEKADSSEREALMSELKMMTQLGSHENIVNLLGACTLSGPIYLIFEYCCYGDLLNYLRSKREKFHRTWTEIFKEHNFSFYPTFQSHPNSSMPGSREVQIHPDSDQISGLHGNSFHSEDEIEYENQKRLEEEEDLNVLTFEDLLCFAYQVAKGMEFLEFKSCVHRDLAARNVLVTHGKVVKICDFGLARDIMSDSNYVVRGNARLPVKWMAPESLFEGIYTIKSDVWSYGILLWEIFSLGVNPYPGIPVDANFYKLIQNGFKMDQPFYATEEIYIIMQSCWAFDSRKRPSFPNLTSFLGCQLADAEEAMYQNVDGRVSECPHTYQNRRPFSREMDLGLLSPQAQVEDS
- ASSAY SUMMARY: Z'-Lyte biochemical kinase assay (SelectScreen), FLT3
- ASSAY SETUP: at 50 nM, in duplicate
State the answer as a number, implicitly in %.

Please review the entries below; each comes with its answer.
COc1ccccc1CNC(=O)c1ccc(F)c(Oc2ccnc3cc(OC)c(OC)cc23)c1 [compound 92] = 50
Cc1c(Oc2ccnc3cc(Cl)ccc23)cccc1C(=O)NCc1ccncc1 [Compounds 108] = 6
Cc1c(Oc2ccnc3cc(N4CCC4)ccc23)cccc1C(=O)NCc1ccncc1 [compound 150] = 12
COc1cc2nccc(Oc3cccc(C(=O)NCC4CCCCC4)c3)c2cc1OC [compound 27] = 39
CN(C)c1ccc2c(Oc3cc(C(=O)NCc4ccncc4)ccc3F)ccnc2c1 [compound 143] = 3
COc1ccccc1CNC(=O)c1cccc(Oc2ccnc3cc(OC)c(OC)cc23)c1 [compound 26] = 47

Q: Report value: inhibition at 0.05 µM, system: FLT3 (Homo sapiens), compound: CNc1ccc2c(Oc3cccc(C(=O)NCc4ccncc4)c3C)ccnc2c1 [compound 148]
Ans: 7

Q: Report value: inhibition at 0.05 µM, system: FLT3 (Homo sapiens), compound: COc1cc2nccc(Oc3cccc(C(=O)NCc4cncc(F)c4)c3)c2cc1OC [compound 29]
Ans: 2
